Give measured pKd for each item. Keep answers brief.
biological target: T1, recombinant human Tau monomer, 2N4R isoform (amino acids 2-441) (human, UniProt P10636-8 2-441); test: SPR, captured IgG, Tau monomer analyte, 1:1 model; fit-quality column: Yes
T1 construct: range 2-441; N-terminal His-tag removed with TEV protease; also called monomeric Tau
T1 sequence (P10636 other isoform, or with tags, fused parts or gaps limits assumed): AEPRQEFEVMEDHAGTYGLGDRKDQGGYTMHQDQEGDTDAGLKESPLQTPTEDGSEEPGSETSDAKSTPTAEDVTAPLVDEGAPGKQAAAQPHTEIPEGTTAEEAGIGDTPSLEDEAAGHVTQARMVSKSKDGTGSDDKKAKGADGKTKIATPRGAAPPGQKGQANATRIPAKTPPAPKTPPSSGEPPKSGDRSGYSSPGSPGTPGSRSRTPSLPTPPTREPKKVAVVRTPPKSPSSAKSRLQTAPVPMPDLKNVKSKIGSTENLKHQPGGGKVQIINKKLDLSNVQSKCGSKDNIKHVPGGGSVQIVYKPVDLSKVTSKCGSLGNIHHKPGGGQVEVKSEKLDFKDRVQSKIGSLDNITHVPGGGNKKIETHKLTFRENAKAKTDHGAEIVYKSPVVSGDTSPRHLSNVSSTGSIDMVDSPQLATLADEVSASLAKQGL
Numbers only, as −log10 of the molar value.

hu37D3.v28.C2 (antibody, V domains shown) VH: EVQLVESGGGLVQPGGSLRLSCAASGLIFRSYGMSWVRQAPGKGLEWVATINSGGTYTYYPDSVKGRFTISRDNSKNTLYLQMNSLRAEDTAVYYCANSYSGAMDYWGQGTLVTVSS VL: DDVLTQTPLSLPVTPGQPASISCRSSQSIVHSNDNTYFEWYLQKPGQSPQLLIYKVSNRFSGVPDRFSGSGSGTDFTLKISRVEAEDVGVYYCFQGSLVPWTFGQGTKVEIK ... 8.02
hu37D3.v29.12 (antibody, V domains shown) VH: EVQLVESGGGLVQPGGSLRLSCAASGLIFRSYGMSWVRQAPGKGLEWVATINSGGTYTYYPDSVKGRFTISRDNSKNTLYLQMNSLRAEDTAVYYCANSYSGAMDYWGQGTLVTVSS VL: EDVLTQTPLSLPVTPGQPASISCRSSQSIVHSNAHTYFEWYLQKPGQSPQLLIYKVSNRFSGVPDRFSGSGSGTDFTLKISRVEAEDVGVYYCFQGSLVPWTFGQGTKVEIK ... 8.15

// next entry
# pKd of hu37D3.v28.A28 (antibody, V domains shown) VH: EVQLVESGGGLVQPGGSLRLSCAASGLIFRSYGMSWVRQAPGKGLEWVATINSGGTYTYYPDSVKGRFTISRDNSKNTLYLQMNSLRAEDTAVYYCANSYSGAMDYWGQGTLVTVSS VL: DVVMTQTPLSLPVTPGQPASISCRSSQSIVHSNGNTYLEWYLQKPGQSPQLLIYKVSNRFSGVPDRFSGSGSGTDFTLKISRVEAEDVGVYYCFQGSLVPWTFGQGTKVEIK = 7.94
